experiment-description: Binding affinity to pig pancreatic cholesterol esterase
Design: species or system Sus scrofa
pKi: −log10 of the molar value.
Listing: pKi of selected molecules
parameter-measured: pKi

> print(dat)
                                  structure  qualifier.symbol  measured.value
1  O=c1oc(OCCBr)c(Cl)c2ccc([N+](=O)[O-])cc12                 =            6.59
2          O=c1oc(OCCC2CCCC2)c(Cl)c2ccccc12                 =            6.59
3                 COc1oc(=O)c2cc(N)ccc2c1Cl                 =            4.77
4    O=c1oc(OCCCBr)cc2ccc([N+](=O)[O-])cc12                 =            4.48
5      O=c1oc(OCCCCCC2CCCCC2)c(Cl)c2ccccc12                 =            4.21
6  O=C(c1c(OCC2CCCCC2)oc(=O)c2ccccc12)C(F)(F)F                 <            4.00
